EXPERIMENTAL_SYSTEM: Hia (full-length, expressed on E. coli BL21) (Haemophilus influenzae)
Construct: trimeric autotransporter
ASSAY: SPR, Hia-expressing BL21 cells immobilised (Biacore C1 chip)
CONDITION_DETAILS: 1x PBS pH 7.4; single-cycle kinetics; whole cells
READOUT_KIND: Kd (nM)
Give your result in nM as a bare value.

Here is how some molecules turned out for Kd.
CC(=O)N[C@H]1[C@H]([C@H](O)[C@H](O)CO)O[C@@](O[C@H]2[C@@H](O)[C@@H](CO)O[C@@H](O[C@H]3[C@H](O)[C@@H](NC(C)=O)C(O)O[C@@H]3CO)[C@@H]2O)(C(=O)O)C[C@@H]1O (some centres unmarked) [2-3 SLN-Ac]    2030
CC(=O)N[C@H]1[C@H](O[C@H]2[C@@H](O)[C@@H](CO)O[C@@H](O[C@H]3[C@H](O)[C@@H](O)C(O)O[C@@H]3CO)[C@@H]2O)O[C@H](CO)[C@@H](O[C@@H]2O[C@H](CO)[C@H](O)[C@H](O[C@@]3(C(=O)O)C[C@H](O)[C@@H](NC(=O)CO)[C@H]([C@H](O)[C@H](O)CO)O3)[C@H]2O)[C@@H]1O (some centres unmarked) [2-3 Gc-SLNnT]    5440
CC(=O)N[C@H]1[C@H](O[C@H]2[C@@H](O)[C@@H](CO)O[C@@H](O[C@H]3[C@H](O)[C@@H](O)C(O)O[C@@H]3CO)[C@@H]2O)O[C@H](CO)[C@@H](O[C@@H]2O[C@H](CO)[C@H](O)[C@H](O[C@@]3(C(=O)O)C[C@H](O)[C@@H](NC(C)=O)[C@H]([C@H](O)[C@H](O)CO)O3)[C@H]2O)[C@@H]1O (some centres unmarked) [2-3 Ac-SLNnT]    2030

Lookup: Kd / Hia (full-length, expressed on E. coli BL21) (Haemophilus influenzae) / CC(=O)N[C@H]1[C@H]([C@H](O)[C@H](O)CO)O[C@](OC[C@H]2O[C@@H](O[C@H]3[C@H](O)[C@@H](NC(C)=O)C(O)O[C@@H]3CO)[C@H](O)[C@@H](O)[C@H]2O)(C(=O)O)C[C@@H]1O (some centres unmarked) [2-6 SLN-Ac]
185

Lookup: Kd / Hia (full-length, expressed on E. coli BL21) (Haemophilus influenzae) / CC(=O)N[C@H]1C(O)O[C@H](CO)[C@@H](O[C@@H]2O[C@H](CO)[C@H](O)[C@H](O[C@@]3(C(=O)O)C[C@H](O)[C@@H](NC(=O)CO)[C@H]([C@H](O)[C@H](O)CO)O3)[C@H]2O)[C@@H]1O (some centres unmarked) [2-3 SLN-Gc]
10100
